MEASURED_ON: HuCD100-His (human, UniProt Q92854 22-734)
PROTOCOL_DETAILS: cell-based or functional assay
RECORDED_METRIC: MDSC proportion (%) at 76.166 nM antibody

A9-VHH3 (antibody, human IgG4 S228P, V domains shown) VH: QVQLVESGGGLVQAGGSLRLSCAASGFSLDYYAIGWFRQAPGKGLEEVSCISSSGGSTDYADSVKGRFTISRAYAKVYLQMNSLRAEDTAVYYCAAGVSGSVCPPLIGAYWGQGTLVTVSS :: 7.66
A9-VHH1 (antibody, human IgG4 S228P, V domains shown) VH: QVQLVESGGGLVQPGGSLRLSCAASGFSLDYYAIGWFRQAPGKEREEVSCISSSGGSTDYADSVKGRFTISRAYAKVYLQMNSLKPEDTAVYYCAAGVSGSVCPPLIGAYWGQGTLVTVSS :: 6.56
